testDetails: PAMPA test (hexadecane membrane), passive gastrointestinal absorption
Format: in vitro ADME
conditionsUsed: PAMPA, donor pH 5.5, acceptor pH 7.4, 5 h, room temperature, read-out: Pe (effective passive permeability coefficient)
quantityName: Papp at 5 h, 0.05 mM (×10⁻⁶ cm/s)
Numbers only, in ×10⁻⁶ cm/s.

In the examples that follow, each entry is paired with its recorded Papp at 5 h, 0.05 mM.
Exercise: Quick one: give measured Papp at 5 h, 0.05 mM for CC(NC(=O)NO)c1ccc(-c2ccccc2)c(F)c1 (stereo not drawn) [Compound 2]
Key: 17.6

Exercise: Output Papp at 5 h, 0.05 mM of COc1ccc2cc(C(C)N(O)C(C)=O)ccc2c1 (stereo not drawn) [Compound 12]
Key: 157

Exercise: Give recorded Papp at 5 h, 0.05 mM. COc1ccc2c(c1)c(CNC(=O)NO)c(C)n2C(=O)c1ccc(Cl)cc1 [Compound 1]
Key: 42.9

Hello, I would appreciate it if you could give Papp at 5 h, 0.05 mM for each entry below.
1. O=C(NO)NCc1ccccc1Nc1c(Cl)cccc1Cl [Compound 3]
2. COc1ccc2c(c1)c(CC(=O)O)c(C)n2C(=O)c1ccc(Cl)cc1 [Indomethacin, indomethacin, reference compound]
3. CC(=O)N(O)C(C)c1ccc(CC(C)C)cc1 (stereo not drawn) [Compound 11]

Key:
[77.3, 386, 146]
